# Test target: human Siglec-7 on primary human monocyte-derived dendritic cells (human, UniProt Q9Y286 19-467)
# Sequence (Q9Y286 19-467): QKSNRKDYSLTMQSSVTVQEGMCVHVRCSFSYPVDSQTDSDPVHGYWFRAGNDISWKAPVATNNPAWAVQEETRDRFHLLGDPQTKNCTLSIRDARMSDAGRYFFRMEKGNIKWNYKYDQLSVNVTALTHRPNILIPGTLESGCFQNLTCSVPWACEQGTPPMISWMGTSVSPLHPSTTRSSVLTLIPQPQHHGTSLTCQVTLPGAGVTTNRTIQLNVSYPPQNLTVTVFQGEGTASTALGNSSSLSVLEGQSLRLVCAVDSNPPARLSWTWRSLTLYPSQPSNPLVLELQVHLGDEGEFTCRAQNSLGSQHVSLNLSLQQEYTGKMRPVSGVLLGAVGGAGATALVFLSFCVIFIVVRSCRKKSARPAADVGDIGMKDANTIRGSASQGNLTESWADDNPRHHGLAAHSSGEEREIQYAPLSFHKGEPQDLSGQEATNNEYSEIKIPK
# Procedure details: cell-based or functional assay
Readout: Fold increase in potency compared to AB-H8 (fold)

Binder | Reported
S7AB-H8.38 (antibody, V domains shown) VH: QVQLVQSGAEVKKPGASVKVSCKASGYAFTGYWMNWVRQAPGQGLEWIGRIFPGLGHTNYAQKFQGRATLTEDTSTSTAYMELSSLRSEDTAVYYCARDYSDYYFDYWGQGTLVTVSS VL: DIQMTQSPSSLSASVGDRVTITCRGSQDINTYLNWYQQKPGKAPKLLIYYTSRLHSGVPSRFSGSGSGTDYTLTISSLQPEDFATYYCQQGNVLPWTFGQGTKLEIK | 4.8
S7AB-H8.27 (antibody, V domains shown) VH: QVQLVQSGAEVKKPGASVKVSCKASGYAFTMAWMNWVRQAPGQGLEWIGRIFPGYGHTNYAQKFQGRATLTEDTSTSTAYMELSSLRSEDTAVYYCARDYSDYYFDYWGQGTLVTVSS VL: DIQMTQSPSSLSASVGDRVTITCRASQDANTYLNWYQQKPGKAPKLLIYYTSRLHSGVPSRFSGSGSGTDYTLTISSLQPEDFATYYCQQGNLLPWTFGQGTKLEIK | 3.6
